# System: Plasmodium falciparum
# ASSAY: Antiplasmodial activity against chloroquine-resistant Plasmodium falciparum V1/S after 48 hrs by [3H]hypoxanthine uptake
# Type: functional, organism-based
MEASURE NAME: IC50

{"SMILES RECORD": "C[C@@H]1CC[C@@]2(OC1)O[C@H]1C[C@H]3C4=CCC5=CC(=O)[C@@H](O)C[C@]5(C)[C@H]4C[C@H](O)[C@]3(C)[C@H]1[C@@H]2C", "MEASURED TARGET": "Plasmodium falciparum", "MEASURE NAME": "IC50", "RESULT": "163 µM"}
